Where do the numbers come from? From patent US7776572B2.

- Test system: ^125I-IgG (goat anti-mouse)
- ASSAY_METHOD_TEXT: Radiometric determination of IgG binding to surfactant-coated polystyrene microtiter wells
- CONDITION_CONTEXT: coated polystyrene wells, not sterilized; after three PBS washes
I'd appreciate it if you could supply Total IgG binding, Non-Sterilized values for the items below.
Give bare numbers, in ng/cm^2.

// solved cases for Total IgG binding, Non-Sterilized follow
[[record]]
compound = "CCCCCCCCCCCCCCCCCC(=O)OCCOCCOCCOCCOCCOCCOCCOCCO [PEO(8) STEARATE]"
assay_readout = "Total IgG binding, Non-Sterilized"
recorded_result = 6

[[record]]
compound = "CCCCCCCCCCCCCCCCCCOCCOCCO [PEO(2) STEARYL ETHER]"
assay_readout = "Total IgG binding, Non-Sterilized"
recorded_result = 83

[[record]]
compound = "CCCCCCCC/C=C\\CCCCCCCCOCCOCCO [PEO(2) OLEYL ETHER]"
assay_readout = "Total IgG binding, Non-Sterilized"
recorded_result = 7

[[record]]
compound = "CCCCCCCCCCCCCCCCOCCOCCO [PEO(2) CETYL ETHER]"
assay_readout = "Total IgG binding, Non-Sterilized"
recorded_result = 18


Let us move to another entry and its Total IgG binding, Non-Sterilized.
Problem: # get_value(readout='Total IgG binding, Non-Sterilized', item= CCCCCCCCCCCCOCCOCCOCCOCCO [PEO(4) LAURYL ETHER] )
Solution: 2

---

- Tested on: ^125I-IgG (goat anti-mouse)
- ASSAY_METHOD_TEXT: Radiometric determination of IgG binding to surfactant-coated polystyrene microtiter wells
- CONDITION_CONTEXT: coated polystyrene wells, not sterilized; after three PBS washes
ASSAY_READOUT: Total IgG binding, Non-Sterilized (ng/cm^2)
One number for each entry, in ng/cm^2.

[[record]]
substance = "PEO(20) SORBITOL TRI-STEARATE"
assay_readout = "Total IgG binding, Non-Sterilized"
recorded_result = 5


I need Total IgG binding, Non-Sterilized for every entry listed below, if you could help.
1. SORBITOL MONO-OLEATE
2. PEO(4) SORBITOL MONO-STEARATE

Solution:
1: 31; 2: 37

Problem: Find the recorded Total IgG binding, Non-Sterilized belonging to PEO(4) SORBITOL MONO-LAURATE and report it.
Solution: 4

---

- System: IgG
- ASSAY_METHOD_TEXT: Coating durability using water washes, IgG binding by colloidal gold
- CONDITION_CONTEXT: dI H2O wash 1 time, 24 hr, 23° C.
Answer each item with its documented Absorbance (550 nm) 1 Time 24 hr 23° C..
Answers are plain numbers.

As a guide, the following entries are already answered.
[[record]]
substance = "SORBITOL MONO-PALMITATE"
assay_readout = "Absorbance (550 nm) 1 Time 24 hr 23° C."
recorded_result = 0.00

[[record]]
substance = "PEO(4) SORBITOL MONO-STEARATE"
assay_readout = "Absorbance (550 nm) 1 Time 24 hr 23° C."
recorded_result = 0.02

[[record]]
substance = "PEO(20) SORBITOL TRI-STEARATE"
assay_readout = "Absorbance (550 nm) 1 Time 24 hr 23° C."
recorded_result = 0.02

[[record]]
substance = "SORBITOL MONO-OLEATE"
assay_readout = "Absorbance (550 nm) 1 Time 24 hr 23° C."
recorded_result = 0.00

[[record]]
substance = "SORBITOL MONO-STEARATE"
assay_readout = "Absorbance (550 nm) 1 Time 24 hr 23° C."
recorded_result = 0.00

[[record]]
substance = "SORBITOL TRI-OLEATE"
assay_readout = "Absorbance (550 nm) 1 Time 24 hr 23° C."
recorded_result = 0.00

[[record]]
substance = "SORBITOL MONO-LAURATE"
assay_readout = "Absorbance (550 nm) 1 Time 24 hr 23° C."
recorded_result = 0.00

[[record]]
substance = "PEO(20) SORBITOL MONO-LAURATE"
assay_readout = "Absorbance (550 nm) 1 Time 24 hr 23° C."
recorded_result = 0.05


Read the next record carefully.
Problem: Entry PEO(4) SORBITOL MONO-LAURATE : reported Absorbance (550 nm) 1 Time 24 hr 23° C. = ?
Solution: 0.10

---

- Test system: ^125I-IgG (goat anti-mouse)
- ASSAY_METHOD_TEXT: Radiometric determination of IgG binding to surfactant-coated polystyrene microtiter wells
- CONDITION_CONTEXT: gamma sterilized (1.5 Mrad); after two hours in PBS-Tween (0.05%)
ASSAY_READOUT: Tight IgG binding, Sterilized (ng/cm^2)
Answers are plain numbers, in ng/cm^2.

The cases that follow already have their Tight IgG binding, Sterilized on record.
[[record]]
compound = "CCCCCCCCCCCCCCCCCC(=O)OCCOCCOCCOCCOCCOCCOCCOCCO [PEO(8) STEARATE]"
system = "^125I-IgG (goat anti-mouse)"
recorded_result = 9

[[record]]
compound = "CCCCCCCCCCCCCCCCCCOCCOCCO"
system = "^125I-IgG (goat anti-mouse)"
recorded_result = 17

[[record]]
compound = "CCCCCCCCCCCCOCCOCCOCCOCCO"
system = "^125I-IgG (goat anti-mouse)"
recorded_result = 4

[[record]]
compound = "CCCCCCCCCCCCCCCCOCCOCCO"
system = "^125I-IgG (goat anti-mouse)"
recorded_result = 25


Problem: Requested field: Tight IgG binding, Sterilized. Item: `CCCCCCCC/C=C\CCCCCCCCOCCOCCO`
Solution: 4

---

- System: Fetal Bovine Serum (FBS)
- ASSAY_METHOD_TEXT: Polymer blends molded into petri dishes, FBS protein binding by colloidal gold
- CONDITION_CONTEXT: blended at 5% into polypropylene; silver enhancer
ASSAY_READOUT: Bound Protein Absorbance (550 nm) FBS
Numbers only.

Some substances with recorded Bound Protein Absorbance (550 nm) FBS:
[[record]]
substance = "PEO(4) SORBITOL MONO-STEARATE"
assay_readout = "Bound Protein Absorbance (550 nm) FBS"
recorded_result = 0.057

[[record]]
substance = "SORBITOL MONO-STEARATE"
assay_readout = "Bound Protein Absorbance (550 nm) FBS"
recorded_result = 0.000

[[record]]
substance = "SORBITOL TRI-OLEATE"
assay_readout = "Bound Protein Absorbance (550 nm) FBS"
recorded_result = 0.000

[[record]]
substance = "PEO(20) SORBITOL MONO-LAURATE"
assay_readout = "Bound Protein Absorbance (550 nm) FBS"
recorded_result = 0.270


Go through the items and report each one's Bound Protein Absorbance (550 nm) FBS.
1. PEO(4) SORBITOL MONO-LAURATE
2. SORBITOL MONO-OLEATE

Solution:
1: 0.056; 2: 0.000

---

- Test system: BSA
- ASSAY_METHOD_TEXT: Polymer blends molded into petri dishes, BSA binding by colloidal gold
- CONDITION_CONTEXT: blended at 5% into polypropylene; silver enhancer
ASSAY_READOUT: Bound Protein Absorbance (550 nm) BSA
Give bare numbers.

// for each substance in input: emit Bound Protein Absorbance (550 nm) BSA
1. SORBITOL MONO-STEARATE
2. PEO(20) SORBITOL MONO-LAURATE
3. PEO(4) SORBITOL MONO-STEARATE
4. SORBITOL MONO-OLEATE

Solution:
1. 0.000
2. 0.153
3. 0.016
4. 0.000

// batch mode: one Bound Protein Absorbance (550 nm) BSA value per listed entry
1. PEO(4) SORBITOL MONO-LAURATE
2. SORBITOL TRI-OLEATE

Solution:
1: 0.060; 2: 0.000

---

Field: Absorbance (550 nm) 1 Time 24 hr 70° C.. Provide a value for each of the substances that follow.
- System: IgG
- ASSAY_METHOD_TEXT: Coating durability using water washes, IgG binding by colloidal gold
- CONDITION_CONTEXT: dI H2O wash 1 time, 24 hr, 70° C.

Sample records with Absorbance (550 nm) 1 Time 24 hr 70° C.:
[[record]]
substance = "SORBITOL MONO-STEARATE"
system = "IgG"
assay_readout = "Absorbance (550 nm) 1 Time 24 hr 70° C."
recorded_result = 0.00

[[record]]
substance = "SORBITOL MONO-OLEATE"
system = "IgG"
assay_readout = "Absorbance (550 nm) 1 Time 24 hr 70° C."
recorded_result = 0.00

[[record]]
substance = "SORBITOL MONO-LAURATE"
system = "IgG"
assay_readout = "Absorbance (550 nm) 1 Time 24 hr 70° C."
recorded_result = "0.00-0.02"

[[record]]
substance = "PEO(20) SORBITOL MONO-LAURATE"
system = "IgG"
assay_readout = "Absorbance (550 nm) 1 Time 24 hr 70° C."
recorded_result = 0.10

[[record]]
substance = "PEO(20) SORBITOL TRI-STEARATE"
system = "IgG"
assay_readout = "Absorbance (550 nm) 1 Time 24 hr 70° C."
recorded_result = 0.10


For each of the substances below, state Absorbance (550 nm) 1 Time 24 hr 70° C..
1. PEO(4) SORBITOL MONO-LAURATE
2. SORBITOL TRI-OLEATE
3. SORBITOL MONO-PALMITATE
4. PEO(4) SORBITOL MONO-STEARATE

Solution:
0.10
0.00
0.00
0.10
